Biological target: T1, murine BACE1 ECD
T1 construct: analyte of the Octet assay (200 nM) and enzyme of the first short substrate assay
T1 sequence (single chain, as listed by the source limits assumed): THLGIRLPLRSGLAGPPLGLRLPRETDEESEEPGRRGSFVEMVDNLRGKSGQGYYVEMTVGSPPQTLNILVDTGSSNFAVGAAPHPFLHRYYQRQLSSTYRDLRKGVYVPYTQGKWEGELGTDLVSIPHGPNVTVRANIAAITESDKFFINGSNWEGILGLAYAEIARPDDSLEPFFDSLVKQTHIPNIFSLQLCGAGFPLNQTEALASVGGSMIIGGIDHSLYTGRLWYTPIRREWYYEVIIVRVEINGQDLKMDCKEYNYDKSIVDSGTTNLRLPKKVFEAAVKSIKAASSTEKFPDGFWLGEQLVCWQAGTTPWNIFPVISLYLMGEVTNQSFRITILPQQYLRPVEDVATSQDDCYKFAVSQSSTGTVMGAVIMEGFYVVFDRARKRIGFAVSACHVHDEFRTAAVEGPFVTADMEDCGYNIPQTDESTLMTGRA
Assay: Octet, pH 7.5;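 also: antibodies captured on anti-human capture sensor tips, dissociation monitored in PBS with BSA, Kd obtained from kinetic fit to a one-to-one binding model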
readout.kind: Kd

* 6274 (antibody, V domains shown, anti-BACE1 IgG) VH: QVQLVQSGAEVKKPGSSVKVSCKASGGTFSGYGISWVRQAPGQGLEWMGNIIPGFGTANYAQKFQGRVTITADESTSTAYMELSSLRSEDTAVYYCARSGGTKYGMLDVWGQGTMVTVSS VL: EIVMTQSPATLSVSPGERATLSCRASQSVSSHLAWYQQKPGQAPRLLIYGASTRATGIPARFSGSGSGTEFTLTISSLQSEDFAVYYCQQLILWPPRTFGGGTKVEIK | < 0.37 nM
* 6289 (antibody, V domains shown, anti-BACE1 IgG) VH: QLQLQESGPGLVKPSETLSLTCTVSGGSISSSSYYWGWIRQPPGKGLEWIGSIYRSGSTYYNPSLRSRVTISVDTSKNQFSLKLSSVTAADTAVYYCVRVGHGISYFDLWGRGTLVTVSS VL: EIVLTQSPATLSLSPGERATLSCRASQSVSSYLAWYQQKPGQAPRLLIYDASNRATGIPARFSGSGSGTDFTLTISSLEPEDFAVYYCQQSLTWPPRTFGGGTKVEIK | 0.28 nM
* 5987 (antibody, V domains shown, anti-BACE1 IgG) VH: QVQLVQSGAEVKKPGSSVKVSCKASGGTLSGYAISWVRQAPGQGLEWMGNIIPGFGTANYAQKSQGRVTITADESTSTAYMELSSLRSEDTAVYYCARSGGTRYGMLDVWGQGTMVTVSS VL: EIVMTQSPATLSVSPGERATLSCRASQSVSSNLAWYQQKPGQAPRLLIYGASTRATGIPARFSGSGSGTEFTLTISSLQSEDFAVYYCQQLFLWPPRTFGGGTKVEIK | < 0.29 nM
